For each of the compounds below, state its IC50.
- Target or test system: BRD4 (Homo sapiens, UniProt O60885)
- Assay comment: Time resolved fluorescence resonance energy transfer (TR-FRET) binding assay, bromodomain BRD4
- Details: one of the FRET assays described; read-out: FRET BRD4 IC50

Find the recorded IC50 belonging to [2H]C([2H])([2H])c1nnn(C)c1-c1cnc2c3ccc(N(C)CCNC)nc3n([C@H](c3ccccc3F)C3CCOCC3)c2c1 and report it.
< 1 nM

# input compound: [2H]C([2H])([2H])Oc1ncc(S(C)(=O)=O)c2c1c1ncc(-c3c(C)noc3C([2H])([2H])[2H])cc1n2[C@H](c1ccccc1)C1CCOCC1 ; wanted: its IC50
< 10 nM

Please report the recorded IC50 for Cc1nnn(C)c1-c1cnc2c3ccc(N4CCC(C(=O)N(C)C)CC4)nc3n([C@H](c3ccccc3F)C3CCOCC3)c2c1 .
< 10 nM

# query: IC50 of entry CCOP(=O)(CCNc1ccc2c3ncc(-c4c(C)nnn4C)cc3n([C@H](c3ccccc3)C3CCOCC3)c2n1)OCC
< 10 nM

Report IC50 for [2H]C([2H])([2H])c1nnn(C)c1-c1cnc2c3c(OCCO)ncc(S(C)(=O)=O)c3n([C@H](c3ccccc3F)C3CCOCC3)c2c1 please.
< 1 nM

Can you look up the measured IC50 of [2H]C([2H])([2H])c1nnn(C)c1-c1cnc2c3c(O)ncc(S(C)(=O)=O)c3n([C@H](c3ccccc3)C3CCC(F)(F)CC3)c2c1 for me?
< 10 nM

From: patent US9725449B2
